- SYSTEM_TESTED: GSK3β (Homo sapiens, UniProt P49841)
- Sequence (P49841 whole entry, species assumed): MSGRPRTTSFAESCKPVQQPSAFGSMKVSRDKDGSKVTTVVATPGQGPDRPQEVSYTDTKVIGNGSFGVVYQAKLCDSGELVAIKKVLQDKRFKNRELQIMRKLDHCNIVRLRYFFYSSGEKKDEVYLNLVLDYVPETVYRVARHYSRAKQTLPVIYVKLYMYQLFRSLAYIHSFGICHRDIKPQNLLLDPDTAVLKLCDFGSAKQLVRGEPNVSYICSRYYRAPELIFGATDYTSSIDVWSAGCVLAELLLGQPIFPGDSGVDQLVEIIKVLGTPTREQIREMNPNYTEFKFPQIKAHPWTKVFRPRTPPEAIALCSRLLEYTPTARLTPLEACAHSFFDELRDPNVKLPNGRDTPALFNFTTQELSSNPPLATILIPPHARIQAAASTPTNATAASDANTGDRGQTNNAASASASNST
pIC50: −log10 of the molar value.

# MOLECULE, SYSTEM_TESTED, pIC50
measured = [
    ("O=C(CN1c2nc(-c3ccncc3)cc(=O)n2CCC1C(F)(F)F)c1ccccc1 (single isomer, unassigned; (-)) [compound 6]", "GSK3β (Homo sapiens, UniProt P49841)", 8.52),
]
